Tested on: Macrophomina phaseolina
Assay: Antifungal activity against Rhizoctonia bataticola at 50 ug/mL after 48 hrs by cup-plate method
Format: functional
Below is a list of entries, each paired with its recorded inhibition at 50 µg/mL value.
Lab note: write values as number then unit, every time.

See these solved cases before continuing.
| structureNotation | testValue |
| --- | --- |
| O=c1cc(COc2ccc(Br)cc2)c2cc(Cl)ccc2[nH]1 | 32% |
| O=c1cc(CNc2ccc(F)cc2)c2ccccc2[nH]1 | 36% |

Give its inhibition at 50 µg/mL value. Item: O=c1cc(CNc2ccc(F)cc2)c2ccc(Cl)cc2[nH]1 62%

----------
Below: a set of entries, each annotated with reported inhibition at 50 µg/mL.
Test system: Aspergillus niger
Experiment: Antifungal activity against Aspergillus niger at 50 ug/mL after 48 hrs by cup-plate method
Assay type: functional

Previously resolved entries follow.
| structureNotation | testValue |
| --- | --- |
| Cc1ccc2c(CNc3ccc(Cl)cc3)cc(=O)oc2c1 | 21% |
| Cc1ccc2c(COc3ccc(F)cc3)cc(=O)oc2c1 | 21% |
| O=c1cc(COc2ccc(Cl)cc2)c2ccc(Cl)cc2[nH]1 | 21% |
| Cc1ccc2c(CNc3ccc(Br)cc3)cc(=O)oc2c1 | 23% |

Under Aspergillus niger: inhibition at 50 µg/mL value of O=c1cc(COc2ccc(F)cc2)c2cc(Cl)ccc2[nH]1 ? 44%

// lookup inhibition at 50 µg/mL | system=Aspergillus niger | key= Cc1ccc2c(CNc3ccc(F)cc3)cc(=O)oc2c1 33%

Request: inhibition at 50 µg/mL, test system Aspergillus niger, entry CCn1cc(C(=O)O)c(=O)c2cc(F)c(N3CCNCC3)cc21 100%

Find inhibition at 50 µg/mL (Aspergillus niger) for the entry O=c1cc(COc2ccc(Br)cc2)c2cc(Cl)ccc2[nH]1 36%

Give the reported inhibition at 50 µg/mL for O=c1cc(CNc2ccc(F)cc2)c2ccccc2[nH]1 (system: Aspergillus niger). 41%

Param readout = inhibition at 50 µg/mL; param system = Aspergillus niger; param query = O=c1cc(COc2ccc(Cl)cc2)c2cc(Cl)ccc2[nH]1 ; response: value 25%
